assay method text: Volume of distribution at steady state in Sprague-Dawley rat at 1 mg/kg, iv and 2.5 mg/kg, po
Assay type: ADME, organism-based
conditions: in vivo, read-out: Vss
observable: Vd

Request: Reported Vd for `C[C@@H](C(=O)N1CCOCC1)N1CC[C@H](NS(=O)(=O)/C=C/c2ccc(Cl)s2)C1=O` : what is it?
Result: 0.29 L/kg

====

assay method text: Plasma clearance in Beagle dog at 1 mg/kg, iv and 2.5 mg/kg, po
Format: ADME, organism-based, Canis lupus familiaris
observable: clearance
Please answer using a numeric value trailed by its unit.

Request: # query: clearance of entry C[C@@H](C(=O)N1CCOCC1)N1CC[C@H](NS(=O)(=O)/C=C/c2ccc(Cl)s2)C1=O [GW813893]
Result: 4.6 mL/min/kg

====

Species on record: Homo sapiens
assay method text: Binding to human serum albumin in HPLC assay
Kindly state Activity for each of the entries shown.
Answers are plain numbers, in %.

Use the examples below as a reference point.
C[C@@H](C(=O)N1CCOCC1)N1CC[C@H](NS(=O)(=O)/C=C/c2ccc(Cl)s2)C1=O | 59
C[C@@H](C(=O)N1CCOCC1)N1CC[C@H](NS(=O)(=O)c2ccc(-c3ccc(Cl)s3)s2)C1=O | 95
C[C@@H](C(=O)N1CCOCC1)N1CC[C@H](NS(=O)(=O)c2cnc(-c3ccc(Cl)s3)s2)C1=O | 93
C[C@@H](C(=O)N1CCOCC1)N1CC[C@H](NS(=O)(=O)c2ncc(-c3ccc(Cl)s3)s2)C1=O | 95
C[C@@H](C(=O)N1CCOCC1)N1CC[C@H](NS(=O)(=O)c2cc3ccc(Cl)cc3s2)C1=O | 88

Each of the following entries comes with a recorded value; kindly state Activity for each.
1. C[C@@H](C(=O)N1CCOCC1)N1CC[C@H](NS(=O)(=O)/C=C/c2ccc(Cl)cc2)C1=O
2. C[C@@H](C(=O)N1CCOCC1)N1CC[C@H](NS(=O)(=O)c2ccc(-c3ccc(Cl)s3)nc2)C1=O

Result:
63
89

Request: For the compound `C[C@@H](C(=O)N1CCOCC1)N1CC[C@H](NS(=O)(=O)c2cc3cc(Cl)ccc3s2)C1=O` , what Activity is on record?
Result: 85
